# Test system: OVCAR-3 ovarian
# Method Description: NCI-60 one-dose screen, 48 h (100 = growth as untreated, 0 = no growth, -100 = all killed)
# Settings: 10 µM unless noted
Compounds without any hit were thinned out: in the full panel of roughly 83,000, 20% have a hit.
Property Measured: growth (%)
Give the number; % is assumed, so skip it.

Query: Request: growth, test system OVCAR-3 ovarian, entry OCCN1CCCCCCC1
Response: 111

Query: Recorded growth for OC1COC(OCc2ccccc2)C(O)C1O (centres undefined) with OVCAR-3 ovarian, please?
Response: 106

Query: Form field: growth recorded for O=C(O)CCCl with OVCAR-3 ovarian (enter value)
Response: 115

Query: What measured growth is associated with CC(=O)NCC(=O)c1ccc([N+](=O)[O-])cc1 on OVCAR-3 ovarian?
Response: 105

Query: Entry N#CC(C#N)N=Nc1cc(Cl)ccc1Cl , system OVCAR-3 ovarian: what growth was measured?
Response: 106

Query: Requested read-out growth, target or system OVCAR-3 ovarian, entry CCCCNc1ccc(Nc2ccccc2)cc1
Response: 66

Query: What measured growth is associated with CC(C)NC(=O)N/C=C(\C#N)C(N)=O on OVCAR-3 ovarian?
Response: 105

Query: Param readout = growth; param system = OVCAR-3 ovarian; param query = c1ccc2c(c1)OC1OC2Oc2ccccc21 ; response: value
Response: 101

Query: Hello, I am looking for reported growth with OVCAR-3 ovarian for O=[N+]([O-])c1cccc(SSc2cccc([N+](=O)[O-])c2)c1 . Could you help?
Response: 127

Query: API: value(readout=growth, system=OVCAR-3 ovarian) for record c1ccc(CNCCNCc2ccccc2)cc1
Response: 121

Query: Form entry - test system: OVCAR-3 ovarian; read-out: growth; compound: CC(C)(O)C(=O)O
Response: 109

Query: Form field - read-out: growth; system: OVCAR-3 ovarian; submitted item: O=C(Cc1ccccc1)c1ccc(O)c(Cl)c1
Response: 12.4

Query: Provide the documented growth with OVCAR-3 ovarian as the system for COc1ccc(Nc2ccc3ccccc3c2)cc1
Response: 78.7

Query: Record COc1ccc(C(=O)CC(c2ccccc2)C(C#N)c2ccccc2)cc1 (centres undefined) : what is its growth with OVCAR-3 ovarian?
Response: 82.4
